Hello, the source for this data is ChEMBL document CHEMBL1153095, in case you need it.

# SYSTEM_TESTED: Nucleic Acid
# ASSAY: Binding affinity to 5'-d[(G3T2A)3G3]-3' quadruplex DNA by surface plasmon resonance
Cut-off 300 nM on Kd: below means criterion met, at or above means criterion not met.

Lab log: compare recorded Kd with 300 nM; is it strictly lower for `N=C(N)NCCCCNc1ccnc2c1ccc1c(NCCCCNC(=N)N)ccnc12` ?
criterion not met

Lab log: compare recorded Kd with 300 nM; is it strictly lower for `NCCCCNc1ccnc2c1ccc1c(NCCCCN)ccnc12` ?
criterion met

Lab log: compare recorded Kd with 300 nM; is it strictly lower for `CN(C)CCCCNc1ccnc2c1ccc1c(NCCCCN(C)C)ccnc12` ?
criterion not met

Lab log: compare recorded Kd with 300 nM; is it strictly lower for `NCCCNc1ccnc2c1ccc1c(NCCCN)ccnc12` ?
criterion not met

Lab log: compare recorded Kd with 300 nM; is it strictly lower for `NCCNc1ccnc2c1ccc1c(NCCN)ccnc12` ?
criterion not met
